Target: YfkE (Bacillus subtilis)
Sequence (O34840 whole entry): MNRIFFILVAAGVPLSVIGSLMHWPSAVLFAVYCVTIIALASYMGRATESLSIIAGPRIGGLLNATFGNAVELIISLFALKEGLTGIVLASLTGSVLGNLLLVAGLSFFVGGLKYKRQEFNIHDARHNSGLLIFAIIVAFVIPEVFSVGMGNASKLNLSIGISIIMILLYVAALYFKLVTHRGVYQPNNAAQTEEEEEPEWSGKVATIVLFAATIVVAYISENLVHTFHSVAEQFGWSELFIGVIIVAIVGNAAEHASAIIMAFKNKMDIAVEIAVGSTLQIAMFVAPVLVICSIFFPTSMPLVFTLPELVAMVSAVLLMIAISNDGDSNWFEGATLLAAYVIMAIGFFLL

{"compound": "O=P(O)(O)O [inorganic phosphate]", "Kd [µM]": 930}
